System: B16F10 highly metastatic mouse melanoma cell line
PROCEDURE TEXT: CellTiter-Glo (CTG) cytotoxic assay
CONDITION DETAILS: B16-F10, 72 h, read-out: Cytotoxicity IC50, B16F10
# reported pIC50; entries follow
The value called pIC50 is obtained by taking minus log10 of the concentration in mol/L.

COMPOUND | TESTED TARGET | RECORDED MEASUREMENT
COc1cccc2c1C(=O)c1c(O)c3c(c(O)c1C2=O)C[C@@](O)(C(=O)CO)C[C@@H]3O[C@H]1C[C@H](N)[C@H](O)[C@H](C)O1 [Adriamycin, reference compound] | B16F10 highly metastatic mouse melanoma cell line | 7.82

Name the value of pIC50 reported for CC(=O)NCc1nc(-c2ccccn2)cc(O)c1[S+](C)[O-] (racemic) [(±)-2] when tested on B16F10 highly metastatic mouse melanoma cell line.
5.11
